The reported numbers originate from ChEMBL document CHEMBL4825771.

- measured.target: 5-hydroxytryptamine receptor 2A (Homo sapiens)
- Sequence (P28223 whole entry): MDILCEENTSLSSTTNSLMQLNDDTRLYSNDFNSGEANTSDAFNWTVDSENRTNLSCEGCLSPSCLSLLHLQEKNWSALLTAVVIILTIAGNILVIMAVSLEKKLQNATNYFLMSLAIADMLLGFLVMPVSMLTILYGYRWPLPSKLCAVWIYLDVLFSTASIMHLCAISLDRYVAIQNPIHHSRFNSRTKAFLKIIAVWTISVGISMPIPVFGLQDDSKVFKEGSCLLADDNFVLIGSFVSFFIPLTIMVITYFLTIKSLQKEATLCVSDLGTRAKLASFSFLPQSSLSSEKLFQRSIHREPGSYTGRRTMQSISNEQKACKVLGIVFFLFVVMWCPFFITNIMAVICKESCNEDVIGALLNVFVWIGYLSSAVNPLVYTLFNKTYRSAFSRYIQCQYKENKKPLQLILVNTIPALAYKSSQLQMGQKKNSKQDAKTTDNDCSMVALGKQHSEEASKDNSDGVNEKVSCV
- measurement.description: Displacement of [3H]-ketanserin from human 5-HT2A receptor incubated for 90 mins by scintillation counting analysis
readout.kind: EC50

Note to self: EC50 recorded for [2H]C([2H])([2H])N(C([2H])([2H])[2H])C([2H])([2H])C([2H])([2H])c1c[nH]c2cccc(OC(=O)CCCCCCCC/C=C\C/C=C\CCCCC)c12 was 965 nM

----------
- measurement.description: Metabolic stability in human liver microsomes assessed as intrinsic clearance measured after 60 mins by LC-MS/MS analysis
- Type: ADME, Microsome
- test.context: read-out: CLH
readout.kind: microsomal CLint (µL/min/mg)
Answers are plain numbers, in µL/min/mg.

Note to self: microsomal CLint recorded for [2H]C([2H])([2H])N(C([2H])([2H])[2H])C([2H])([2H])C([2H])([2H])c1c[nH]c2cccc(OC(=O)CCCCCCCC/C=C\C/C=C\CCCCC)c12 was 10.4
